Target: Opioid receptors; delta & kappa (Homo sapiens) (UniProt P41145+P41143)
Sequence (P41143 whole entry, looked up): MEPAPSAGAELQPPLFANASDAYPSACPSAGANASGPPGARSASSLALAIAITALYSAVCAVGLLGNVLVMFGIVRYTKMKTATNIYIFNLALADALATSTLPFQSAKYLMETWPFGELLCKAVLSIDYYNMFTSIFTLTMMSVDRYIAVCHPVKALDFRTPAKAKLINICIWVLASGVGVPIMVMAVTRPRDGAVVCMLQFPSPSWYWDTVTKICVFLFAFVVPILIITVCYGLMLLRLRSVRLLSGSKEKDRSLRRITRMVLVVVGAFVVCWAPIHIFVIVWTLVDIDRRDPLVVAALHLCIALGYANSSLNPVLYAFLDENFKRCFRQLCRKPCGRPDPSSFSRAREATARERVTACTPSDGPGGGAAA
Sequence (P41145 whole entry, looked up): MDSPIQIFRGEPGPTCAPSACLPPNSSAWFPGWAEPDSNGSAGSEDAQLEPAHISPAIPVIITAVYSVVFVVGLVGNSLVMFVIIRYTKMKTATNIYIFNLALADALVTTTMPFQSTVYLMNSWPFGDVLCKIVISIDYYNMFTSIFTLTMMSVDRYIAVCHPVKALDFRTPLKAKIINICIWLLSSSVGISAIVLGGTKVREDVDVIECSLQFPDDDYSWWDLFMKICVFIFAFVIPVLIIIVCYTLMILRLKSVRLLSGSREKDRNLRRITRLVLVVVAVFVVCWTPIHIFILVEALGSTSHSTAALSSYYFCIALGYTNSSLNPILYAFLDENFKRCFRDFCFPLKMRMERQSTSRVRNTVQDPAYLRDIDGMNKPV
Assay: Selectivity ratio for kappa and delta opioid receptor binding
Type: protein assay
So I've got a bunch of compounds here, and I need their Selectivity ratio values.
Field format: numeric only.

INPUT: So what does the record say about Selectivity ratio for C=C(C)CN1CCC23c4c5ccc(O)c4O[C@H]2c2oc4ccccc4c2C[C@@]3(O)C1C5 (stereo not given in full) ?
OUTPUT: 71

INPUT: // query: C=C(C)CN1CCC23c4c5ccc(OC)c4O[C@H]2c2n[nH]cc2C[C@@]3(O)C1C5 (stereo not given in full)
OUTPUT: 1

INPUT: // query: C=C(C)CN1CCC23c4c5ccc(O)c4O[C@H]2C(=O)C2(Cc4ccccc4C2)C[C@@]3(O)C1C5 (stereo not given in full)
OUTPUT: 24

INPUT: // query: C=C(C)CN1CCC23c4c5ccc(O)c4O[C@H]2c2[nH]c4ccccc4c2C[C@@]3(O)C1C5 (stereo not given in full)
OUTPUT: 810

INPUT: // query: C=C(C)CN1CCC23c4c5ccc(O)c4O[C@H]2c2n[nH]cc2C[C@@]3(O)C1C5 (stereo not given in full)
OUTPUT: 1

meta.source: ChEMBL document CHEMBL1134426
